The entries below are paired with their reported pIC50.
- Test System: human CXCR3 (N-delta 4) (Homo sapiens)
- Construct: CD8 leader (N); Flag tag; expressed in transfected cells; membrane preparation
- Sequence (P49682 5-368 limits assumed): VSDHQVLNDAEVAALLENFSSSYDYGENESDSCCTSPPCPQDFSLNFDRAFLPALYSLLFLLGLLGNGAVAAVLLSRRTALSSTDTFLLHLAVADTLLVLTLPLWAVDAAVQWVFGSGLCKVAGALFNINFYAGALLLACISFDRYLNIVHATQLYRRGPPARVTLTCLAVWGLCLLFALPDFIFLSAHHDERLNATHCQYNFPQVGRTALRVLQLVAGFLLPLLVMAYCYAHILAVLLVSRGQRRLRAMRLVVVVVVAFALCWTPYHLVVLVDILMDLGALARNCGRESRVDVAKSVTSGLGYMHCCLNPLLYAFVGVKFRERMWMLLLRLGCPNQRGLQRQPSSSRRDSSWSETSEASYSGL
- Experiment Notes: Human CXCR3 (N-delta 4) scintillation proximity assay (SPA), [125I] IP-10 binding to Ba/F3-hCXCR3 membranes
- Condition Context: IC50 rating; [125I] IP-10 displacement, human CXCR3; read-out: IC50
pIC50: −log10 of the molar value.

Consider the worked cases shown below.
Compound: C[C@@H]1CN(c2ncc(NC3C(=O)C(=O)C3NCC(F)(F)F)cc2Cl)[C@@H](C)CN1C1CCN(Cc2ccc3ccccc3c2)CC1 (stereo partly shown)
pIC50: < 7.00
--
Compound: C[C@@H]1CN(c2ncc(Nc3c(NCC(F)(F)F)c(=O)c3=O)cc2Cl)[C@@H](C)CN1C1CCN(Cc2ccccc2Sc2ccc(Cl)cc2)CC1
pIC50: < 7.00
--
Compound: C[C@@H]1CN(c2ncc(Nc3c(NCC(F)(F)F)c(=O)c3=O)cc2Cl)[C@@H](C)CN1C1CCN(Cc2cccc(C#N)c2)CC1
pIC50: < 7.00
--
Compound: C[C@H]1CN(c2ncc(NC(=O)C3CC3)cc2Cl)CCN1C1CCN(Cc2ccc(Cl)cc2)CC1
pIC50: > 7.60
--
Compound: CC[C@H]1CN(c2ncc(NS(C)(=O)=O)cc2Cl)CCN1C1CCN([C@@H](C(=O)NC)c2ccc(Cl)cc2)CC1
pIC50: < 7.00

IN: Data request, read-out pIC50, for "CC[C@H]1CN(c2ncc(NC3=NS(=O)(=O)N=C3NC(C)C)cc2Cl)CCN1C1CCN(Cc2ccc(Cl)cc2F)CC1"
OUT: > 7.60

IN: Note, next up: "C[C@@H]1CN(c2ncc(Nc3c(NCC(F)(F)F)c(=O)c3=O)cc2Cl)[C@@H](C)CN1C1CCN(Cc2nccs2)CC1"
OUT: < 7.00

IN: Cool, now "CC[C@H]1CN(c2ncc(NC3=NS(=O)(=O)N=C3NCC(F)(F)F)cc2Cl)CCN1C1CCN(Cc2ccc(F)c(F)c2)CC1"
OUT: < 7.00

IN: Now consider "CC[C@H]1CN(c2ncc(NC3=NS(=O)(=O)N=C3NC3CC3)cc2Cl)CCN1C1CCN(Cc2ccc(F)c(F)c2)CC1" .
OUT: > 7.60

IN: Next record, please: "C[C@@H]1CN(c2ncc(Nc3c(NCC(F)(F)F)c(=O)c3=O)cc2Cl)[C@@H](C)CN1C1CCN(Cc2cccc(Cl)c2Cl)CC1"
OUT: < 7.00
